Values from patent US20090215710A1

# protocol-description: Cell viability in pre-screen (Table 1)
# Assay type: cell-based
# recorded-conditions: 1 uM

compound | % Viability, %
COc1ccc(O[C@@H]2O[C@@H]3COC(c4ccccc4)O[C@H]3[C@H](O)[C@H]2O)cc1 (some centres unmarked) [RSCL-0370] | 115
COc1ccc(O[C@H]2O[C@@H]3COC(c4ccccc4)O[C@H]3[C@H](O[C@@H]3O[C@H](CO)[C@@H](OC(=O)CCl)[C@H](OC(C)=O)[C@H]3OC(C)=O)[C@H]2NC(=O)C(Cl)(Cl)Cl)cc1 (some centres unmarked) [RSCL-0629] | 99
COc1ccc(O[C@@H]2O[C@H](COC(=O)CCC(C)=O)[C@@H](OC(=O)CCl)[C@H](OC(C)=O)[C@H]2OC(C)=O)cc1 [RSCL-0393] | 84
CC(=O)CCC(=O)OC[C@H]1O[C@@H](O[C@H]2[C@@H]3OC(c4ccccc4)OC[C@H]3OC(O)[C@@H]2NC(=O)C(Cl)(Cl)Cl)[C@H](OC(C)=O)[C@@H](OC(C)=O)[C@@H]1OC(=O)CCl (some centres unmarked) [RSCL-0627] | 105
COc1ccc(O[C@H]2O[C@@H]3COC(c4ccccc4)O[C@H]3[C@H](O)[C@H]2NC(=O)C(Cl)(Cl)Cl)cc1 (some centres unmarked) [RSCL-0400] | 93
COc1ccc(O[C@H]2O[C@@H]3COC(c4ccccc4)O[C@H]3[C@H](O[C@@H]3O[C@H](COC(=O)CCC(C)=O)[C@@H](OC(C)=O)[C@H](OC(C)=O)[C@H]3OC(C)=O)[C@H]2NC(=O)C(Cl)(Cl)Cl)cc1 (some centres unmarked) [RSCL-0625] | 90
COc1ccc(OC2OC3COC(c4ccccc4)OC3C(OC3OC(COC(=O)CCC(C)=O)C(OC(=O)CCl)C(OC(C)=O)C3OC(C)=O)C2NC(=O)C(Cl)(Cl)Cl)cc1 (centres unmarked) [RSCL-0409] | 108
COc1ccc(O[C@H]2O[C@@H]3COC(c4ccccc4)O[C@H]3[C@H](O[C@@H]3O[C@H](CO)[C@@H](O)[C@H](OC(C)=O)[C@H]3OC(C)=O)[C@H]2NC(=O)C(Cl)(Cl)Cl)cc1 (some centres unmarked) [RSCL-0628] | 89
COc1ccc(O[C@H]2O[C@@H]3COC(c4ccccc4)O[C@H]3[C@H](O[C@@H]3O[C@H](COC(=O)CCC(C)=O)[C@@H](O)[C@H](OC(C)=O)[C@H]3OC(C)=O)[C@H]2NC(=O)C(Cl)(Cl)Cl)cc1 (some centres unmarked) [RSCL-0440] | 114
COc1ccc(O[C@@H]2O[C@H](COC(C)=O)[C@@H](OC(C)=O)[C@H](OC(C)=O)[C@H]2OC(C)=O)cc1 [RSCL-0367] | 114
COc1ccc(OC2OC3COC(c4ccccc4)OC3C(OC3OC(COC(=O)CCl)C(OC(=O)CCl)C(OC(C)=O)C3OC(C)=O)C2NC(=O)C(Cl)(Cl)Cl)cc1 (centres unmarked) [RSCL-0631] | 95
COc1ccc(O[C@H]2O[C@@H]3COC(c4ccccc4)O[C@H]3[C@H](O[C@@H]3O[C@H](CO)[C@@H](OC(C)=O)[C@H](OC(C)=O)[C@H]3OC(C)=O)[C@H]2NC(=O)C(Cl)(Cl)Cl)cc1 (some centres unmarked) [RSCL-0626] | 97
COc1ccc(O[C@H]2O[C@@H]3COC(c4ccccc4)O[C@H]3[C@H](O[C@@H]3O[C@H](COC(=O)CCl)[C@@H](OC(C)=O)[C@H](OC(C)=O)[C@H]3OC(C)=O)[C@H]2NC(=O)C(Cl)(Cl)Cl)cc1 (some centres unmarked) [RSCL-0630] | 95
COc1ccc(O[C@H]2O[C@@H]3COC(c4ccccc4)O[C@H]3[C@H](O[C@@H]3O[C@H](COC(=O)CCC(C)=O)[C@@H](OS(=O)(=O)O)[C@H](OC(C)=O)[C@H]3OC(C)=O)[C@H]2NC(=O)C(Cl)(Cl)Cl)cc1 (some centres unmarked) [RSCL-0621] | 90
